details: human;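 further: count of indexed literature references reporting vascular liver injury in humans, e.g. peliosis hepatitis, hepatic veno-occlusive disease or Budd-Chiari syndrome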
test_readout: Hepatotoxicity (association with vascular disease)

Prompt: What value of Hepatotoxicity (association with vascular disease) has been reported for the following molecule? CC[C@@H](CO)NC(=O)[C@@H]1C=C2c3cccc4c3c(cn4C)C[C@H]2N(C)C1 [METHYSERGIDE]
Response: 0

Prompt: Moving on to the next molecule: C[C@@H](O)[C@H]1C(=O)N2C(C(=O)O)=C(S[C@@H]3CN[C@H](C(=O)N(C)C)C3)[C@H](C)[C@H]12
Response: 0

Prompt: Moving on to the next molecule: CCC(C)(C)NCC(O)COc1ccccc1C(=O)CCc1ccccc1 (configuration not stated)
Response: 0

Prompt: Moving on to the next molecule: CO[C@H]1C[C@H](O[C@H]2[C@H](C)[C@@H](O[C@@H]3O[C@H](C)C[C@H](N(C)C)[C@H]3OC(C)=O)[C@@H](C)C[C@@]3(CO3)C(=O)[C@H](C)[C@@H](OC(C)=O)[C@@H](C)[C@@H](C)OC(=O)[C@@H]2C)O[C@@H](C)[C@@H]1OC(C)=O
Response: 0

Prompt: Moving on to the next molecule: Fc1ccccc1C1=NCC(=S)N(CC(F)(F)F)c2ccc(Cl)cc21
Response: 0

Prompt: Moving on to the next molecule: C[C@H]1O[C@@H](O[C@H]2[C@@H](O)C[C@H](O[C@H]3[C@@H](O)C[C@H](O[C@H]4CC[C@@]5(C)[C@H](CC[C@@H]6[C@@H]5C[C@@H](O)[C@]5(C)[C@@H](C7=CC(=O)OC7)CC[C@]65O)C4)O[C@@H]3C)O[C@@H]2C)C[C@H](O)[C@@H]1O
Response: 0

Prompt: Moving on to the next molecule: CN(C)CCC=C1c2ccccc2C=Cc2ccccc21
Response: 0

Prompt: Moving on to the next molecule: C#C[C@]1(O)CC[C@H]2[C@@H]3CCC4=CCCC[C@@H]4[C@H]3CC[C@@]21C
Response: 0

Prompt: Moving on to the next molecule: C[C@@H]1C[C@H](C)CN(S(=O)(=O)c2ccc(Cl)c(C(=O)O)c2)C1
Response: 0

Prompt: Moving on to the next molecule: CO/N=C(\C(=O)N[C@@H]1C(=O)N2C(C(=O)O)=C(COC(C)=O)CS[C@H]12)c1csc(N)n1
Response: 0

Prompt: Moving on to the next molecule: C[C@H]1COc2c(N3CCN(C)CC3)c(F)cc3c(=O)c(C(=O)O)cn1c23.C[C@H]1COc2c(N3CCN(C)CC3)c(F)cc3c(=O)c(C(=O)O)cn1c23.O
Response: 0

Prompt: Moving on to the next molecule: CC(C)CCOc1ccc(NC(=S)Nc2ccc(OCCC(C)C)cc2)cc1 [TIOCARLIDE]
Response: 0

Prompt: Moving on to the next molecule: Nc1cc(N2CCCCC2)nc(N)[n+]1[O-]
Response: 0

Prompt: Moving on to the next molecule: C[C@@H]1O[C@@H]1P(=O)(O)O
Response: 0

Prompt: Moving on to the next molecule: Nc1nnc(-c2cccc(Cl)c2Cl)c(N)n1
Response: 0

Prompt: Moving on to the next molecule: CN1CCN2c3ccccc3Cc3ccccc3C2C1 (configuration not stated)
Response: 0

Prompt: Moving on to the next molecule: Nc1c(CC(=O)O)cccc1C(=O)c1ccc(Br)cc1
Response: 0

Prompt: Moving on to the next molecule: NCC(CC(=O)O)c1ccc(Cl)cc1 (configuration not stated)
Response: 0

Prompt: Moving on to the next molecule: C[Si](C)(C)c1cccc(C(=O)C(F)(F)F)c1
Response: 0

Prompt: Moving on to the next molecule: COc1ccc2c(c1)c(CC(=O)OCC(=O)O)c(C)n2C(=O)c1ccc(Cl)cc1
Response: 0

Prompt: Moving on to the next molecule: CN(C)[C@@H]1C(O)=C(C(N)=O)C(=O)[C@@]2(O)C(O)=C3C(=O)c4c(O)ccc(Cl)c4[C@@](C)(O)[C@H]3C[C@@H]12
Response: 0

Prompt: Moving on to the next molecule: Nc1ccn([C@@H]2O[C@H](CO)[C@@H](O)C2(F)F)c(=O)n1
Response: 2

Prompt: Moving on to the next molecule: CCN(CC)CCOC(=O)[C@@H](Cc1cccc2ccccc12)C[C@@H]1CCCO1
Response: 0

Prompt: Moving on to the next molecule: COc1ccc(CCN(C)CCCOc2ccc(S(=O)(=O)c3c(C(C)C)cn4ccccc34)cc2)cc1OC
Response: 0

Prompt: Moving on to the next molecule: CNC(=O)c1c(I)c(C(=O)NCC(=O)Nc2c(I)c(C(=O)O)c(I)c(C(=O)NCCO)c2I)c(I)c(N(C)C(C)=O)c1I
Response: 0

Prompt: Moving on to the next molecule: CN(C)Cc1ccc(CSCCN/C(=C\[N+](=O)[O-])NCc2ccc3c(c2)OCO3)o1
Response: 0

Prompt: Moving on to the next molecule: CC(C)=CCC1C(=O)N(c2ccccc2)N(c2ccccc2)C1=O
Response: 0

Prompt: Moving on to the next molecule: CC(C(=O)O)c1cccc(Oc2ccccc2)c1 (configuration not stated)
Response: 0

Prompt: Moving on to the next molecule: NCC(=O)CCC(=O)O
Response: 0

Prompt: Moving on to the next molecule: CCCCC(CC)COC(=O)CC(C(=O)OCC(CC)CCCC)S(=O)(=O)O (configuration not stated) [DOCUSATE]
Response: 0

Prompt: Moving on to the next molecule: Cc1cc2c(cc1CC(=O)c1sccc1S(=O)(=O)Nc1onc(C)c1Cl)OCO2
Response: 0

Prompt: Moving on to the next molecule: Nc1ccc(C(=O)O)cc1
Response: 0
